Reference for the values: paper PMC10412636

Experiment: MC540 probe fluorescence intensity in MM liposomes
Details: 30 µM, 37 °C, positive = decrease
The compounds listed here are annotated with their Changes in MC540 fluorescence intensity relative to the control.
property: Changes in MC540 fluorescence intensity relative to the control (%)

{"columns": ["compound", "unit-tag", "value-measured"],
 "data": [
  ["COc1cc(-c2[o+]c3cc(O)cc(O)c3cc2OC2OC(CO)C(O)C(O)C2O)ccc1O (centres unmarked) [Pn 3-glc, Peonidin 3-O-glucoside]", "%", 35.68],
  ["OCC1OC(Oc2cc3c(O)cc(O)cc3[o+]c2-c2cc(O)c(O)c(O)c2)C(O)C(O)C1O (centres unmarked) [Dp 3-glc, Delphinidin 3-O-glucoside]", "%", 30.30],
  ["Oc1cc(O)c2cc(O)c(-c3cc(O)c(O)c(O)c3)[o+]c2c1", "%", 73.23],
  ["COc1cc(-c2[o+]c3cc(O)cc(O)c3cc2O)cc(O)c1O", "%", 72.51],
  ["COc1cc(-c2[o+]c3cc(O)cc(O)c3cc2OC2OC(CO)C(O)C(O)C2O)cc(O)c1O (centres unmarked) [Pt 3-glc, Petunidin 3-O-glucoside]", "%", 42.63]
]}

* * *

In this section, each of the molecules is paired with its reported Changes in MC540 fluorescence intensity relative to the control.
Test: MC540 probe fluorescence intensity in RBCM liposomes
Set-up: species or system human
Conditions: 30 µM, 37 °C, positive = decrease
property: Changes in MC540 fluorescence intensity relative to the control

{"columns": ["molecule", "value-measured"],
 "data": [
  ["Oc1cc(O)c2cc(O)c(-c3cc(O)c(O)c(O)c3)[o+]c2c1", "64.08±6.62%"],
  ["OCC1OC(Oc2cc3c(O)cc(O)cc3[o+]c2-c2cc(O)c(O)c(O)c2)C(O)C(O)C1O (centres unmarked) [Dp 3-glc, Delphinidin 3-O-glucoside]", "47.56±9.12%"],
  ["COc1cc(-c2[o+]c3cc(O)cc(O)c3cc2OC2OC(CO)C(O)C(O)C2O)ccc1O (centres unmarked) [Pn 3-glc, Peonidin 3-O-glucoside]", "50.34±2.93%"],
  ["COc1cc(-c2[o+]c3cc(O)cc(O)c3cc2O)cc(O)c1O", "61.93±1.58%"],
  ["COc1cc(-c2[o+]c3cc(O)cc(O)c3cc2OC2OC(CO)C(O)C(O)C2O)cc(O)c1O (centres unmarked) [Pt 3-glc, Petunidin 3-O-glucoside]", "58.91±14.03%"]
]}

* * *

Assay: DPH fluorescence quenching, dissociation constant with RBCM liposome membrane
Type: binding, human
Settings: 37 °C

{"columns": ["compound", "Kd / µM"],
 "data": [
  ["COc1cc(-c2[o+]c3cc(O)cc(O)c3cc2OC2OC(CO)C(O)C(O)C2O)ccc1O (centres unmarked) [Pn 3-glc, Peonidin 3-O-glucoside]", 28.2],
  ["COc1cc(-c2[o+]c3cc(O)cc(O)c3cc2OC2OC(CO)C(O)C(O)C2O)cc(O)c1O (centres unmarked) [Pt 3-glc, Petunidin 3-O-glucoside]", 46.9],
  ["COc1cc(-c2[o+]c3cc(O)cc(O)c3cc2O)cc(O)c1O", 15.3],
  ["OCC1OC(Oc2cc3c(O)cc(O)cc3[o+]c2-c2cc(O)c(O)c(O)c2)C(O)C(O)C1O (centres unmarked) [Dp 3-glc, Delphinidin 3-O-glucoside]", 13.4],
  ["Oc1cc(O)c2cc(O)c(-c3cc(O)c(O)c(O)c3)[o+]c2c1", 9.89]
]}
